Ref: patent EP2678315B1

# targetDesc: human alpha 7-wt nAChR (Homo sapiens, UniProt P36544)
# Construct: expressed in transfected cells
# Sequence (P36544 23-502): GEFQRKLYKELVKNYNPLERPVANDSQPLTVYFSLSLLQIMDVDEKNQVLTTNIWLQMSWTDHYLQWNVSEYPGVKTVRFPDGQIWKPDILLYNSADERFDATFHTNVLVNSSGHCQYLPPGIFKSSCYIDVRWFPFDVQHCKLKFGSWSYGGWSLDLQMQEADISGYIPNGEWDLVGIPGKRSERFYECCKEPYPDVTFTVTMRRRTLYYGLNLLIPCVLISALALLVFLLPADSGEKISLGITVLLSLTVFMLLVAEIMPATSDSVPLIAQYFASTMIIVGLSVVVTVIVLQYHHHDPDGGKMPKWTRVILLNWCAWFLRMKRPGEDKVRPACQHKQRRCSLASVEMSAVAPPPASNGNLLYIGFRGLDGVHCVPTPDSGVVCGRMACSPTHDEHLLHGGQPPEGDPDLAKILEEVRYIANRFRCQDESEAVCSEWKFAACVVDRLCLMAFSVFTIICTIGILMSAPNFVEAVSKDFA
# experimentSummary: Patch-clamp current recording (whole-cell voltage-clamp, GH4C1 cells)
# Format: cell-based
# Parameters: key: Type 0 compounds minimally change the effect size of the current elicited by 1 mM choline.; Type 1 compounds enhance the effect size of the current elicited by 1 mM choline but minimally alter the kinetics of the receptor.; Type 2 compounds enhance the effect size of the current elicited by 1 mM choline while reducing the rate and/or the extent of desensitization.; Type 3 compounds enhance the effect size of the current elicited by 1 mM choline. When tested at higher concentrations up to 10 µM they completely inhibit desensitization; Type 4 compounds allow for an initial desensitization of the receptor followed by a re-opening of the receptor during agonist application
# conditionDescription: current elicited by 1 mM choline
assayEndpoint: PAM type

> print(dat)
                               linenotation  recordedresult
1  Cc1cc(-c2c(F)cc(N3CCO[C@@H](C(F)(F)F)C3)cc2CNC(=O)CC2CC2)cc(C)n1               3
2  Cc1cc(-c2cc(F)c(N3C[C@@H](C)O[C@@H](C)C3)cc2CNC(=O)c2cc(C)on2)cc(C)n1               1
3  Cc1cc(-c2cc(F)c(N3C[C@@H](C)O[C@@H](C)C3)cc2CNC(=O)C(C)C)cc(C)n1               2
4  Cc1cc(-c2ccc(N3C[C@@H](C)O[C@@H](C)C3)cc2CNC(=O)c2cc(C)on2)cc(C)n1               1
5  Cc1cc(-c2c(F)cc(N3CCO[C@H](C(F)(F)F)C3)cc2CNC(=O)CC2CCC2)cc(C)n1               3
